Data provenance: the supplement of paper PMC10567573

B1: TRAF3IP2 (parent)
chain: PGQPLPGASVRGLHPVQKVILNYP

variants of: B1; assay: protein stability index of a GFP-peptide fusion (GPS, HEK-293T) (PSI 1-6); higher = more stable; details: c terminus: a fixed tail appended;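 also: lentivirally expressed fusions sorted by FACS into six bins by GFP to DsRed ratio, PSI derived from sequencing read proportions per bin multiplied by bin number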
Listing: protein stability index of selected variants
Response field accepts a number only; no unit should be typed.

// known answers, use as guide
S9Q 2.86
L13M 3.59
L21V 2.87
P4Y 2.77
N22T 3.05

Requested field: protein stability index. Item: "P15E"
3.12

Returns the measured protein stability index for the input variant. Input: "K18M"
2.72

Recorded protein stability index for "Q17I" , please?
2.24

Quick one: protein stability index of "K18C" ?
2.09

// lookup protein stability index for "N22R"
4.18

// lookup protein stability index for "P6H"
3.44

Reported protein stability index, variant "V10C" : ____
3.29

Value lookup for protein stability index; key = "L5C"
2.94

Request the reported protein stability index associated with "L21N"
3.6

Item "P15T" has what recorded protein stability index?
2.48
